The entries below come with measured fold induction at 48 h, 0.1 µM values attached.
# TEST SYSTEM: CYP1A1 (Mus musculus)
# Sequence (P00184 whole entry): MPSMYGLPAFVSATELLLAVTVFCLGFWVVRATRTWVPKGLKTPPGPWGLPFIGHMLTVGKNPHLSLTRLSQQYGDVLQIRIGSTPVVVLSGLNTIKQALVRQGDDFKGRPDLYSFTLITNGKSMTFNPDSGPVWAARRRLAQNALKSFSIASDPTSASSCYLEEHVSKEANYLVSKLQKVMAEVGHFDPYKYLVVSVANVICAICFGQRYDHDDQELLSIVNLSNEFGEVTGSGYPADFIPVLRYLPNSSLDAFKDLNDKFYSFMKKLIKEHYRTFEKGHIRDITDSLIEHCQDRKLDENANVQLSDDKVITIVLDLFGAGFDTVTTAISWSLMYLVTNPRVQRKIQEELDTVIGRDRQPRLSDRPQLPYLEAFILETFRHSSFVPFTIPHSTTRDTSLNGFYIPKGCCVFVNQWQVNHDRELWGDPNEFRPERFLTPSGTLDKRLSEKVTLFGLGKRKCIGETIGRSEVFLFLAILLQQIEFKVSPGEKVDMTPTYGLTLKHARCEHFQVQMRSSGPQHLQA
# METHOD: Induction of CYP1A1 activity in mouse Hepa-1c1c7 cells assessed as induction ratio at 0.1 uM after 48 hrs by EROD assay relative to control
# Type: ADME, cell-based
Give only the figure.

Some entries whose results are on file:
{"columns": ["COMPOUND", "fold induction at 48 h, 0.1 µM"],
 "data": [
  ["COc1cccc(/C=C2/C(=O)Nc3cc(Cl)ccc32)c1", 1.51],
  ["O=C1Nc2ccccc2/C1=C1\\C(=O)Nc2ccccc21 [ISOINDIGO]", 1.44],
  ["O=C1Nc2ccccc2/C1=C\\c1cccc(C(F)(F)F)c1", 1.4]
]}

Form field - read-out: fold induction at 48 h, 0.1 µM; system: CYP1A1 (Mus musculus); submitted item: O=C1Nc2ccccc2/C1=C\c1ccc(C(F)(F)F)cc1
1.22

---

# TEST SYSTEM: NAD(P)H dehydrogenase [quinone] 1 (Mus musculus) (UniProt Q64669)
# Sequence (Q64669 whole entry): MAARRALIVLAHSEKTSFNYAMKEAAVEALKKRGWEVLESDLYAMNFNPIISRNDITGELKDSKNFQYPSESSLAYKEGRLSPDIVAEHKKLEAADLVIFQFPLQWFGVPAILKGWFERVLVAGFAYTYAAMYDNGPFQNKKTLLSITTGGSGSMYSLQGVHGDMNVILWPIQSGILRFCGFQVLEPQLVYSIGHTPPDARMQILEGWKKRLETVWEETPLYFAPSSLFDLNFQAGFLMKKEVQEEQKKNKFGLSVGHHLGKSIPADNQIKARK
# METHOD: Induction of NQO1 activity in mouse Hepa-1c1c7 cells assessed as induction ratio at 5 uM after 48 hrs by MTT assay relative to control
# Type: cell-based
PROPERTY NAME: Ratio
Answer with a number only.

{"columns": ["MOLECULE SMILES", "TEST SYSTEM", "Ratio"],
 "data": [
  ["COc1cccc(/C=C2\\Nc3ccccc3C2=O)c1", "NAD(P)H dehydrogenase [quinone] 1 (Mus musculus) (UniProt Q64669)", 3.88],
  ["COc1cccc(/C=C2/C(=O)N(C)c3ccccc32)c1", "NAD(P)H dehydrogenase [quinone] 1 (Mus musculus) (UniProt Q64669)", 4.78],
  ["COc1ccc(/C=C2/C(=O)Nc3ccccc32)cc1", "NAD(P)H dehydrogenase [quinone] 1 (Mus musculus) (UniProt Q64669)", 4.5],
  ["O=C1Nc2ccccc2/C1=C\\c1ccccc1", "NAD(P)H dehydrogenase [quinone] 1 (Mus musculus) (UniProt Q64669)", 5.13],
  ["COc1cc(/C=C2/C(=O)Nc3ccccc32)ccc1O", "NAD(P)H dehydrogenase [quinone] 1 (Mus musculus) (UniProt Q64669)", 4]
]}

What value of measured Ratio is listed for COc1ccc(/C=C2/C(=O)N(C)c3ccccc32)cc1O ?
2.64

Requested read-out: Ratio. Entry: Cc1ccccc1/C=C1/C(=O)Nc2ccccc21
4.45

Entry under review: O=C1Nc2ccccc2/C1=C\c1cccc(O)c1 . Reported Ratio?
3.94

GET /values?readout=Ratio&item= O=C1Nc2ccccc2/C1=C\c1ccccc1F
6.8

---

# TEST SYSTEM: NAD(P)H dehydrogenase [quinone] 1 (Mus musculus) (UniProt Q64669)
# METHOD: Induction of NQO1 activity in mouse Hepa-1c1c7 cells assessed as induction ratio at 5 nM after 48 hrs by MTT assay relative to control
# Format: cell-based
PROPERTY NAME: Ratio

Consider the worked cases shown below.
{"columns": ["MOLECULE SMILES", "TEST SYSTEM", "PROPERTY NAME", "RESULT"],
 "data": [
  ["O=C1Nc2ccccc2/C1=C1\\C(=O)Nc2ccc(Cl)cc21", "NAD(P)H dehydrogenase [quinone] 1 (Mus musculus) (UniProt Q64669)", "Ratio", 2.42],
  ["O=C1Nc2cc(C(F)(F)F)ccc2/C1=C1\\C(=O)Nc2ccc(F)cc21", "NAD(P)H dehydrogenase [quinone] 1 (Mus musculus) (UniProt Q64669)", "Ratio", 3.09],
  ["O=C1Nc2ccccc2/C1=C1\\C(=O)Nc2cc(F)ccc21", "NAD(P)H dehydrogenase [quinone] 1 (Mus musculus) (UniProt Q64669)", "Ratio", 2.56]
]}

Fill in the blank: the reported Ratio of O=C1Nc2ccccc2/C1=C1\C(=O)Nc2cc(C(F)(F)F)ccc21 is ____.
2.99

Reported Ratio, compound O=C1Nc2cc(C(F)(F)F)ccc2/C1=C1\C(=O)Nc2ccc(Cl)cc21 : ____
2.96

---

Measured pIC50, listed per entry for reference.
# System: MCF7
# METHOD: Antiproliferative activity against human MCF7 cells after 72 hrs by MTT assay
# Assay type: functional, cell-based
# ASSAY SETUP: MCF7, 72 h
Please note pIC50 is a logarithmic value: minus log10 of concentration in mol/L. Answer with that number alone.

{"columns": ["MOLECULE SMILES", "READOUT NUMBER"],
 "data": [
  ["O=C1Nc2ccccc2/C1=C\\c1cccc2ccccc12", 4.71],
  ["COc1ccc(/C=C2/C(=O)Nc3ccccc32)c(OC)c1", 5.48],
  ["COc1cccc(OC)c1/C=C1/C(=O)Nc2ccccc21", 5.21],
  ["O=C1Nc2cc(F)ccc2/C1=C\\c1cccc(C(F)(F)F)c1", 5.05]
]}

Let us examine a further case.
What does the record list as pIC50 for O=C1Nc2ccccc2/C1=C\c1cccc(Oc2ccccc2)c1 ?
5.09

---

# METHOD: Cytotoxicity against mouse Hepa-1c1c7 cells after 48 hrs by MTT assay
# Type: cell-based
# ASSAY SETUP: hepa-1c1c7, 48 h
Entries and their IC50 values follow.
The figure you give is taken to be in µM; do not add the unit.

{"columns": ["MOLECULE SMILES", "IC50 [µM]"],
 "data": [
  ["COc1cccc(OC)c1/C=C1/C(=O)Nc2ccccc21", 13.9],
  ["O=C1Nc2ccccc2/C1=C\\c1ccccn1", 19.9],
  ["O=C1Nc2ccccc2/C1=C\\c1ccc(Cl)cc1", 6.7],
  ["O=C1Nc2cc(Cl)ccc2/C1=C\\c1cccc(C(F)(F)F)c1", 1.1],
  ["O=C1Nc2ccccc2/C1=C\\c1cccc(Oc2ccccc2)c1", 10.8],
  ["O=C1Nc2ccccc2/C1=C\\c1ccc(Cl)cc1Cl", 10.6]
]}

Suppose we examine the molecule COc1cccc(/C=C2/C(=O)Nc3cc(F)ccc32)c1 ; what IC50 value has been reported?
9.8

What IC50 value was documented for this molecule, O=C1Nc2ccccc2/C1=C1\C(=O)Nc2ccc(Cl)cc21 ?
20.5

Can you share its IC50? I mean this molecule: O=C1Nc2cc(F)ccc2/C1=C\c1cccc(C(F)(F)F)c1
2.2

Item under review: O=C1Nc2ccccc2/C1=C\c1cccc(C(F)(F)F)c1 . Reported IC50?
3.9

---

# TEST SYSTEM: NAD(P)H dehydrogenase [quinone] 1 (Mus musculus) (UniProt Q64669)
# METHOD: Induction of NQO1 activity in mouse Hepa-1c1c7 cells assessed as induction ratio at 1 uM after 48 hrs by MTT assay relative to control
# Type: cell-based
Ratio: recorded values
Answer as a number with no unit attached.

{"columns": ["COMPOUND", "TEST SYSTEM", "Ratio"],
 "data": [
  ["C[S+]([O-])CCCCN=C=S (stereo not drawn) [SULFORAPHANE]", "NAD(P)H dehydrogenase [quinone] 1 (Mus musculus) (UniProt Q64669)", 3.89],
  ["Cc1cccc(/C=C2/C(=O)Nc3ccccc32)c1", "NAD(P)H dehydrogenase [quinone] 1 (Mus musculus) (UniProt Q64669)", 4.04]
]}

Suppose we examine the compound COc1ccccc1/C=C1/C(=O)Nc2ccccc21 ; what Ratio value has been reported?
4.03

---

# METHOD: Selectivity ratio of IC50 for human CCL186 cells to IC50 for human HCT116 cells
# Type: ADME, cell-based, HCT-116
# ASSAY SETUP: CCL186 cells and HCT116 cells, read-out: Ratio IC50
selectivity ratio overview
// print number alone

For orientation, consider the following solved cases.
{"columns": ["MOLECULE SMILES", "READOUT NUMBER"],
 "data": [
  ["COc1cccc(/C=C2/C(=O)Nc3cc(OC)ccc32)c1", 1.4],
  ["O=C1Nc2cc(Cl)ccc2/C1=C\\c1cccc(C(F)(F)F)c1", 0.9],
  ["O=C1Nc2ccccc2/C1=C\\c1cccc(Oc2ccccc2)c1", 1.5],
  ["COc1cccc(OC)c1/C=C1/C(=O)Nc2ccccc21", 2.9],
  ["COc1ccc(OC)c(/C=C2/C(=O)Nc3ccccc32)c1", 2.4]
]}

Requested read-out: selectivity ratio. Entry: O=C1Nc2ccccc2/C1=C\c1cccc2ccccc12
1.3
